Below: a set of entries, each annotated with reported GI50.
Tested on: UACC-257
Assay: NCI tumour cell line growth inhibition, 48 h
Activity calls are given as the source filed them. No stated cut-off is given here; in the data, active = GI50 up to about 1.1 µM and inactive = higher.
RECORDED METRIC: GI50

* O=[N+]([O-])c1cn[n+]([O-])c2ccccc12 | 11.4 µM (inactive)
* CC(C)(C)OC(=O)NC1CCC[C@H]1O (stereo not given in full) | > 100 µM (inactive)
* Cc1ccc(S(=O)(=O)N2CCC2c2ccccc2)cc1 (stereo not given) | 47.3 µM (inactive)
* O=C1C2=C(c3ccccc31)C(c1ccc(F)cc1)N1C(=O)CCSC1=N2 (stereo not given) | > 100 µM (inactive)
* O=C(OCc1ccccc1)N(CCCCN(CCCNCc1ccccc1)C(=O)OCc1ccccc1)CCCNCc1ccccc1 | 0.36 µM (active)
* CCOC(=O)C(=O)Nc1c(C)cccc1C(C)(C)C | > 100 µM (inactive)
* Cc1nc(NC(C)(CO)CO)nc(N/N=C/c2ccc(Cl)cc2)c1C(=O)Nc1ccc(Cl)cc1 | > 100 µM (inactive)
* Nc1cc2c(nnn2C2OC(COCc3ccccc3)C(OCc3ccccc3)C2OCc2ccccc2)c(=O)[nH]1 (stereo not given) | 14.9 µM (inactive)
* CC1=NNC(=O)C1C1CC(c2c[nH]c3ccccc23)=NN(C(N)=O)C1=O (stereo not given) | > 100 µM (inactive)
* CCCC[C@H]1C(=O)O[C@H](C)[C@H](NC(=O)c2cccc(NC=O)c2OC)C(=O)O[C@@H](C)[C@@H]1OC(=O)C(C)CC.CCCC[C@H]1C(=O)O[C@H](C)[C@H](NC(=O)c2cccc(NC=O)c2OC)C(=O)O[C@@H](C)[C@@H]1OC(=O)CC(C)C (stereo not given in full) | 12.1 µM (inactive)
* CCOP1(=O)OCC2OC(n3cnc4c(N)ncnc43)C(O)C2O1.c1ccccc1 (stereo not given) | > 100 µM (inactive)
* O=C(N/N=C1\CCc2ccccc21)N/N=C1\CCc2ccccc21 | > 100 µM (inactive)
* COc1cc(/C=C/C(C)=O)ccc1OP(=O)(O)O | > 100 µM (inactive)
* Cc1ccc(C2=Nn3c(nc4sc5c(c4c3=O)CCCC5)SC2)cc1 | > 100 µM (inactive)
* CC[C@@]1(O)C(=O)OCc2c1cc1n(c2=O)Cc2c-1nc1ccccc1c2/C=N/NC(=O)c1ccc(N)cc1 | 6.44 µM (inactive)
* O=C(O)CN1CCN(CC(=O)O)CCN(CC(=O)O)CC1 | 58.7 µM (inactive)
* O=C1C2=C(c3ccccc31)C(c1ccccc1Cl)N1C(=O)CSC1=N2 (stereo not given) | > 100 µM (inactive)
* Cc1cc(NC(=O)NC(=O)c2ccccc2N)ccc1Oc1ncc(Br)cn1 | 0.0655 µM (active)
* CO/N=C(\C)c1ccc(Nc2c3ccccc3nc3occc23)cc1 | 14.3 µM (inactive)
* N#Cc1ccc(N2CCOCC2)cc1 | > 100 µM (inactive)
